A collection of binders and their measured fold difference in affinity vs original
# target_of_assay: T1, Ep-CAM (UniProt P16422 24-265, limits assumed)
# T1 construct: Antigen of the Biacore analysis of ING-1 variants
# T1 sequence (looked up): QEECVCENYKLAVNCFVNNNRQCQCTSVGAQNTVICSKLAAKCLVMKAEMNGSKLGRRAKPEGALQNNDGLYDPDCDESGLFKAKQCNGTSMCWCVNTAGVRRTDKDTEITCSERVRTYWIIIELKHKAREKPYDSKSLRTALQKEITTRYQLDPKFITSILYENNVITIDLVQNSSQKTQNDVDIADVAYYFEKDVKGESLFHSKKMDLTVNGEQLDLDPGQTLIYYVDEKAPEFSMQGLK
# method_notes: Biacore, Fab periplasmic extract
Supply the numeric figure in fold, leaving out any unit text.

Worked cases, fold difference in affinity vs original given:
binder	value_kind	reading
ING-1 heavy chain W50Y (Fab, V domains shown) VH: QIQLVQSGPELKKPGETVKISCKASGYTFTKYGMNWVKQAPGKGLKWMGYINTYTEEPTYGDDFKGRFAFSLETSASTANLQINNLKSEDTATYFCARFGSAVDYWGQGTSVTVSS VL: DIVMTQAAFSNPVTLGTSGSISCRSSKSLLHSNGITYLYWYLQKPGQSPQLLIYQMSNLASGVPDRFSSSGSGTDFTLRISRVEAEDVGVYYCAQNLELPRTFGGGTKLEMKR	fold difference in affinity vs original	0.04
ING-1 heavy chain K31Y (Fab, V domains shown) VH: QIQLVQSGPELKKPGETVKISCKASGYTFTYYGMNWVKQAPGKGLKWMGWINTYTEEPTYGDDFKGRFAFSLETSASTANLQINNLKSEDTATYFCARFGSAVDYWGQGTSVTVSS VL: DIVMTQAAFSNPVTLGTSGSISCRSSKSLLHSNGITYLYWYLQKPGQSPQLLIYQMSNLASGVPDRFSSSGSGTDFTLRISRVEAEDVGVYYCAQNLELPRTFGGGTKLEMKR	fold difference in affinity vs original	1
ING-1 heavy chain Y32K (Fab, V domains shown) VH: QIQLVQSGPELKKPGETVKISCKASGYTFTKKGMNWVKQAPGKGLKWMGWINTYTEEPTYGDDFKGRFAFSLETSASTANLQINNLKSEDTATYFCARFGSAVDYWGQGTSVTVSS VL: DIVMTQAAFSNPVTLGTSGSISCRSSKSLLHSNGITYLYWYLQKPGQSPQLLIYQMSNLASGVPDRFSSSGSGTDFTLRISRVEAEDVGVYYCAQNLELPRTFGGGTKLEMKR	fold difference in affinity vs original	0.08

Consider the binder shown here: ING-1 heavy chain W50H (Fab, V domains shown) VH: QIQLVQSGPELKKPGETVKISCKASGYTFTKYGMNWVKQAPGKGLKWMGHINTYTEEPTYGDDFKGRFAFSLETSASTANLQINNLKSEDTATYFCARFGSAVDYWGQGTSVTVSS VL: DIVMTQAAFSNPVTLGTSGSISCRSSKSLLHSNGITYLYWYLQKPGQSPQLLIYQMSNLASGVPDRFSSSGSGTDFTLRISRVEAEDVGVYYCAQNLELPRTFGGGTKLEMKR What is its recorded fold difference in affinity vs original? 0.02

Repeat with ING-1 heavy chain Y32H (Fab, V domains shown) VH: QIQLVQSGPELKKPGETVKISCKASGYTFTKHGMNWVKQAPGKGLKWMGWINTYTEEPTYGDDFKGRFAFSLETSASTANLQINNLKSEDTATYFCARFGSAVDYWGQGTSVTVSS VL: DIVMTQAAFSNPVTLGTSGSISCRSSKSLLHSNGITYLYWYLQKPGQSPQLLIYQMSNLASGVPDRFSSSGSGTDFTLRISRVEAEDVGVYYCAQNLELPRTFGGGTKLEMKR 0.6
